# maps each entry to its Bliss excess
System: HCC2157 (Breast Carcinoma);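 further: after 72 h of two-drug dosing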
Assay: Bliss excess, mean over the matrix (fraction); higher = more synergy
Give only the figure.

**Query** Could you share which Bliss excess value was measured for COc1nnc2ccc(N3CCC(c4ccc(OCCN5CCN(C)C(=O)[C@H]5C)cc4)CC3)nn12 [AZD5153] + CC1(C)CCC(CN2CCN(c3ccc(C(=O)NS(=O)(=O)c4ccc(NCC5CCOCC5)c([N+](=O)[O-])c4)c(Oc4cnc5[nH]ccc5c4)c3)CC2)=C(c2ccc(Cl)cc2)C1 [Venetoclax] (first compound max 1 µM, 7x7, partner max 1 µM) ?
**Result** 0.0328

# context switch: different compound, same Bliss excess
**Query** // Bliss excess lookup, key: CN(C)CCCOc1ccc(-c2ccc3ncc4c(c3c2)n(C2CCOCC2)c(=O)n4C)cn1 [AZD0156] + C[C@@H]1COCCN1C2=NC(=NC(=C2)C3(CC3)[S@](=N)(=O)C)C4=C5C=CNC5=NC=C4 [AZD6738] (first compound max 1 µM, 7x7, partner max 10 µM)
**Result** 0.0548
